# Protocol notes: total protein half-life in vivo (active degradation + dilution); higher = more stable protein
# Test settings: wild type E. coli NCM3722; growth: C-lim chemostat; doubling time 3 h
Assign total protein half-life in vivo to each entry below.
Could you give me the number in h? Just the number is fine.

The recorded total protein half-life in vivo for entry MRYPVDVYTGKIQAYPEGKPSAIAKIQVDGELMLTELGLEGDEQAEKKVHGGPDRALCHYPREHYLYWAREFPEQAELFVAPAFGENLSTDGLTESNVYMGDIFRWGEALIQVSQPRSPCYKLNYHFDISDIAQLMQNTGKVGWLYSVIAPGKVSADAPLELVSRVSDVTVQEAAAIAWHMPFDDDQYHRLLSAAGLSKSWTRTMQKRRLSGKIEDFSRRLWGK equals 3.04

The recorded total protein half-life in vivo for entry MSKTFARSSLCALSMTIMTAHAAEPPTNLDKPEGRLDIIAWPGYIERGQTDKQYDWVTQFEKETGCAVNVKTAATSDEMVSLMTKGGYDLVTASGDASLRLIMGKRVQPINTALIPNWKTLDPRVVKGDWFNVGGKVYGTPYQWGPNLLMYNTKTFPTPPDSWQVVFVEQNLPDGKSNKGRVQAYDGPIYIADAALFVKATQPQLGISDPYQLTEEQYQAVLKVLRAQHSLIHRYWHDTTVQMSDFKNEGVVASSAWPYQANALKAEGQPVATVFPKEGVTGWADTTMLHSEAKHPVCAYKWMNWSLTPKVQGDVAAWFGSLPVVPEGCKASPLLGEKGCETNGFNYFDKIAFWKTPIAEGGKFVPYSRWTQDYIAIMGGR equals 3.27

----------
Assign total protein half-life in vivo to each entry below.
# Protocol notes: total protein half-life in vivo (active degradation + dilution); higher = more stable protein
# Test settings: E. coli NCM3722 delta-clpP delta-lon delta-hslV; growth: N-lim chemostat; doubling time 6 h
Could you give me the number in h? Just the number is fine.

The recorded total protein half-life in vivo for entry MKATSEELAIFVSVVESGSFSRAAEQLGQANSAVSRAVKKLEMKLGVSLLNRTTRQLSLTEEGERYFRRVQSILQEMAAAESEIMETRNTPRGLLRIDAATPVVLHFLMPLIKPFRERYPEVTLSLVSSETIINLIERKVDVAIRAGTLTDSSLRARPLFNSYRKIIASPDYISRYGKPETIDDLKQHICLGFTEPASLNTWPIARSDGQLHEVKYGLSSNSGETLKQLCLSGNGIACLSDYMIDKEIARGELVELMADKVLPVEMPFSAVYYSDRAVSTRIRAFIDFLSEHVKTAPGGAVREA equals 6.4

The recorded total protein half-life in vivo for entry MNKETQPIDRETLLKEANKIIREHEDTLAGIEATGVTQRNGVLVFTGDYFLDEQGLPTAKSTAVFNMFKHLAHVLSEKYHLVD [P0AB61] equals 5.24

----------
# Protocol notes: total protein half-life in vivo (active degradation + dilution); higher = more stable protein
# Test settings: wild type E. coli NCM3722; growth: P-lim chemostat; doubling time 12 h
Readout kind: total protein half-life in vivo (h)
Could you give me the number in h? Just the number is fine.

The recorded total protein half-life in vivo for entry MFQQQKDWETRENAFAAFTMGPLTDFWRQRDEAEFTGVDDIPVRFVRFRAQHHDRVVVICPGRIESYVKYAELAYDLFHLGFDVLIIDHRGQGRSGRLLADPHLGHVNRFNDYVDDLAAFWQQEVQPGPWRKRYILAHSMGGAISTLFLQRHPGVCDAIALTAPMFGIVIRMPSFMARQILNWAEAHPRFRDGYAIGTGRWRALPFAINVLTHSRQRYRRNLRFYADDPTIRVGGPTYHWVRESILAGEQVLAGAGDDATPTLLLQAEEERVVDNRMHDRFCELRTAAGHPVEGGRPLVIKGAYHEILFEKDAMRSVALHAIVDFFNRHNSPSGNRSTEV equals 10.8

The recorded total protein half-life in vivo for entry MTIAIVIGTHGWAAEQLLKTAEMLLGEQENVGWIDFVPGENAETLIEKYNAQLAKLDTTKGVLFLVDTWGGSPFNAASRIVVDKEHYEVIAGVNIPMLVETLMARDDDPSFDELVALAVETGREGVKALKAKPVEKAAPAPAAAAPKAAPTPAKPMGPNDYMVIGLARIDDRLIHGQVATRWTKETNVSRIIVVSDEVAADTVRKTLLTQVAPPGVTAHVVDVAKMIRVYNNPKYAGERVMLLFTNPTDVERLVEGGVKITSVNVGGMAFRQGKTQVNNAVSVDEKDIEAFKKLNARGIELEVRKVSTDPKLKMMDLISKIDK equals 14.3

----------
# Protocol notes: total protein half-life in vivo (active degradation + dilution); higher = more stable protein
# Test settings: wild type E. coli NCM3722; growth: N-lim chemostat; doubling time 6 h
Readout kind: total protein half-life in vivo (h)
Could you give me the number in h? Just the number is fine.

The recorded total protein half-life in vivo for entry MQKDALNNVHITDEQVLMTPEQLKAAFPLSLQQEAQIADSRKSISDIIAGRDPRLLVVCGPCSIHDPETALEYARRFKALAAEVSDSLYLVMRVYFEKPRTTVGWKGLINDPHMDGSFDVEAGLQIARKLLLELVNMGLPLATEALDPNSPQYLGDLFSWSAIGARTTESQTHREMASGLSMPVGFKNGTDGSLATAINAMRAAAQPHRFVGINQAGQVALLQTQGNPDGHVILRGGKAPNYSPADVAQCEKEMEQAGLRPSLMVDCSHGNSNKDYRRQPAVAESVVAQIKDGNRSIIGLMIESNIHEGNQSSEQPRSEMKYGVSVTDACISWEMTDALLREIHQDLNGQLTARVA equals 0.94

The recorded total protein half-life in vivo for entry MIVAFCLYKYFPFGGLQRDFMRIASTVAARGHHVRVYTQSWEGDCPKAFELIQVPVKSHTNHGRNAEYYAWVQNHLKEHPADRVVGFNKMPGLDVYFAADVCYAEKVAQEKGFLYRLTSRYRHYAAFERATFEQGKSTKLMMLTDKQIADFQKHYQTEPERFQILPPGIYPDRKYSEQIPNSREIYRQKNGIKEQQNLLLQVGSDFGRKGVDRSIEALASLPESLRHNTLLFVVGQDKPRKFEALAEKLGVRSNVHFFSGRNDVSELMAAADLLLHPAYQEAAGIVLLEAITAGLPVLTTAVCGYAHYIADANCGTVIAEPFSQEQLNEVLRKALTQSPLRMAWAENARHYADTQDLYSLPEKAADIITGGLDG equals 6.2

The recorded total protein half-life in vivo for entry MLELNFSQTLGNHCLTINETLPANGITAIFGVSGAGKTSLINAISGLTRPQKGRIVLNGRVLNDAEKGICLTPEKRRVGYVFQDARLFPHYKVRGNLRYGMSKSMVDQFDKLVALLGIEPLLDRLPGSLSGGEKQRVAIGRALLTAPELLLLDEPLASLDIPRKRELLPYLQRLTREINIPMLYVSHSLDEILHLADRVMVLENGQVKAFGALEEVWGSSVMNPWLPKEQQSSILKVTVLEHHPHYAMTALALGDQHLWVNKLDEPLQAALRIRIQASDVSLVLQPPQQTSIRNVLRAKVVNSYDDNGQVEVELEVGGKTLWARISPWARDELAIKPGLWLYAQIKSVSITA equals 5.68

The recorded total protein half-life in vivo for entry MPIRVPDELPAVNFLREENVFVMTTSRASGQEIRPLKVLILNLMPKKIETENQFLRLLSNSPLQVDIQLLRIDSRESRNTPAEHLNNFYCNFEDIQDQNFDGLIVTGAPLGLVEFNDVAYWPQIKQVLEWSKDHVTSTLFVCWAVQAALNILYGIPKQTRTEKLSGVYEHHILHPHALLTRGFDDSFLAPHSRYADFPAALIRDYTDLEILAETEEGDAYLFASKDKRIAFVTGHPEYDAQTLAQEFFRDVEAGLDPDVPYNYFPHNDPQNTPRASWRSHGNLLFTNWLNYYVYQITPYDLRHMNPTLD equals 1.58

The recorded total protein half-life in vivo for entry MHVTLVEINVHEDKVDEFIEVFRQNHLGSVQEEGNLRFDVLQDPEVNSRFYIYEAYKDEDAVAFHKTTPHYKTCVAKLESLMTGPRKKRLFNGLMP equals 2.69

----------
# Protocol notes: total protein half-life in vivo (active degradation + dilution); higher = more stable protein
# Test settings: wild type E. coli NCM3722; growth: C-lim chemostat; doubling time 6 h
Readout kind: total protein half-life in vivo (h)
Could you give me the number in h? Just the number is fine.

The recorded total protein half-life in vivo for entry MKHTVEVMIPEAEIKARIAELGRQITERYKDSGSDMVLVGLLRGSFMFMADLCREVQVSHEVDFMTASSYGSGMSTTRDVKILKDLDEDIRGKDVLIVEDIIDSGNTLSKVREILSLREPKSLAICTLLDKPSRREVNVPVEFIGFSIPDEFVVGYGIDYAQRYRHLPYIGKVILLDE [P0A9M2] equals 4.78

The recorded total protein half-life in vivo for entry MKIGIIGAMEEEVTLLRDKIENRQTISLGGCEIYTGQLNGTEVALLKSGIGKVAAALGATLLLEHCKPDVIINTGSAGGLAPTLKVGDIVVSDEARYHDADVTAFGYEYGQLPGCPAGFKADDKLIAAAEACIAELNLNAVRGLIVSGDAFINGSVGLAKIRHNFPQAIAVEMEATAIAHVCHNFNVPFVVVRAISDVADQQSHLSFDEFLAVAAKQSSLMVESLVQKLAHG [P0AF12] equals 6.36

The recorded total protein half-life in vivo for entry MSDNLPWKTWTPDDLAPPQAEFVPIVEPEETIIEEAEPSLEQQLAQLQMQAHEQGYQAGIAEGRQQGHKQGYQEGLAQGLEQGLAEAKSQQAPIHARMQQLVSEFQTTLDALDSVIASRLMQMALEAARQVIGQTPTVDNSALIKQIQQLLQQEPLFSGKPQLRVHPDDLQRVDDMLGATLSLHGWRLRGDPTLHPGGCKVSADEGDLDASVATRWQELCRLAAPGVV equals 3.64
